Biological target: T1, KDM5A PHD3 PHD-finger
T1 chain: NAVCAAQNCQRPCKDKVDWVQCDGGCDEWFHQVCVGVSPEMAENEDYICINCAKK
pIC50: −log10 of the molar value. Bridge positions count the residues as written; N and C are the ends. Ends that are not written are not given here.
metric: pIC50

Ask: Fill blank: measured pIC50 of the binder {CH2CO}-YYLTHPYPSVFRTC (thioether N-14) [OC9, de novo cyclic peptide from mRNA display] is ____.
Reply: < 5.30
